Data provenance: BindingDB's records for patent US20250213705

Reported pIC50 values, Glutamate carboxypeptidase 2 (Homo sapiens).
pIC50: −log10 of the molar value.

molecule	targetUnderTest	pIC50
CC(=O)NCCOCCOCCOCCC(=O)NC[C@H]1CC[C@H](C(=O)N[C@@H](Cc2ccc3ccccc3c2)C(=O)NCCCC[C@H](NC(=O)N[C@@H](CS)C(=O)O)C(=O)O)CC1 [US20250213705, Compound 28]	Glutamate carboxypeptidase 2 (Homo sapiens)	4.67
CC(=O)NCCOCCOCCOCCC(=O)N[C@@H](Cc1ccc(C(=O)O)cc1)C(=O)NCC(=O)N[C@@H](Cc1ccc2ccccc2c1)C(=O)NCCCC[C@H](NC(=O)N[C@@H](CCC(=O)O)C(=O)O)C(=O)O [US20250213705, Compound 94]	Glutamate carboxypeptidase 2 (Homo sapiens)	8.73
CC(=O)NCCOCCOCCOCCC(=O)N[C@@H]1C[C@@H](C(=O)NCC(=O)N[C@@H](Cc2ccc3ccccc3c2)C(=O)NCCCC[C@H](NC(=O)N[C@@H](CCC(=O)O)C(=O)O)C(=O)O)N(C(=O)CCCOc2cc(C#N)cc(C#N)c2)C1 [US20250213705, Compound 92]	Glutamate carboxypeptidase 2 (Homo sapiens)	7.10
CC(=O)NCCOCCOCCOCCC(=O)N[C@@H](Cc1cccc(C(=O)O)c1)C(=O)NCC(=O)N[C@@H](Cc1ccc2ccccc2c1)C(=O)NCCCC[C@H](NC(=O)N[C@@H](CCC(=O)O)C(=O)O)C(=O)O [US20250213705, Compound 84]	Glutamate carboxypeptidase 2 (Homo sapiens)	8.29

###

Reported Ki values, UniProt:Q04609.
valueKind: Ki (pM)

compound	unitTag	reportedMeasurement
CC(=O)NCCOCCOCCOCCC(=O)N[C@@H]1C[C@@H](C(=O)N[C@@H](Cc2ccc3ccccc3c2)C(=O)NCCCC[C@H](NC(=O)N[C@@H](CCC(=O)O)C(=O)O)C(=O)O)N(C(=O)COc2cc(C#N)cc(C#N)c2)C1 [US20250213705, Compound 81]	pM	76
CC(=O)NCCOCCOCCOCCC(=O)NC[C@H]1CC[C@H](C(=O)N[C@@H](CCCCNC(=O)C(F)(F)F)C(=O)NCCCC[C@H](NC(=O)N[C@@H](CCC(=O)O)C(=O)O)C(=O)O)CC1 [US20250213705, Compound 54]	pM	636
CC(=O)NCCOCCOCCOCCC(=O)N1C[C@H](NC(=O)CCCOc2cc(C#N)cc(C#N)c2)C[C@H]1C(=O)N[C@@H](Cc1ccc2ccccc2c1)C(=O)NCCCC[C@H](NC(=O)N[C@@H](CCC(=O)O)C(=O)O)C(=O)O [US20250213705, Compound 80]	pM	17
CC(=O)NCCCC[C@H](NC(=O)[C@H]1CC[C@H](CNC(=O)CCOCCOCCOCCNC(C)=O)CC1)C(=O)NCCCC[C@H](NC(=O)N[C@@H](CCC(=O)O)C(=O)O)C(=O)O [US20250213705, Compound 83]	pM	21

###

Reported Ki values, Glutamate carboxypeptidase 2 (Homo sapiens, UniProt Q04609).
valueKind: Ki (nM)

smilesString	reportedMeasurement
CC(=O)NCCOCCOCCOCCC(=O)N1C[C@H](NC(=O)CCCOc2cc(C#N)cc(C#N)c2)C[C@H]1C(=O)NCC(=O)N[C@@H](Cc1ccc2ccccc2c1)C(=O)NCCCC[C@H](NC(=O)N[C@@H](CCC(=O)O)C(=O)O)C(=O)O	0.187
CC(=O)NCCOCCOCCOCCC(=O)N(CCCOc1cc(C#N)cc(C#N)c1)CC(=O)N[C@@H](Cc1ccc2ccccc2c1)C(=O)NCCCC[C@H](NC(=O)N[C@@H](CCC(=O)O)C(=O)O)C(=O)O	0.05
CC(=O)NCCOCCOCCOCCC(=O)N(CCCOc1cc(C(F)(F)F)cc(C(F)(F)F)c1)CC(=O)N[C@@H](Cc1ccc2ccccc2c1)C(=O)NCCCC[C@H](NC(=O)N[C@@H](CCC(=O)O)C(=O)O)C(=O)O	0.423
CC(=O)NCCOCCOCCOCCC(=O)NC[C@H]1CC[C@H](C(=O)N[C@@H](Cc2ccc3ccccc3c2)C(=O)NCCCC[C@H](NC(=O)N[C@@H](CC(=O)O)C(=O)O)C(=O)O)CC1	50.1
